These data points were gathered from ChEMBL document CHEMBL1629649.

Kindly state MIC for each of the entries shown.
System: Salmonella enteritidis
Method: Antimicrobial activity against Salmonella enterica serovar enteritidis isolate 104 harboring gyrA D87Y mutant gene by Etest
Type: functional, Salmonella enterica subsp. enterica serovar Enteritidis
Numbers only, in µg/mL.

> print(dat)
                                   molecule           target.entity  observed.result
1  CC1(C)S[C@@H]2[C@H](NC(=O)[C@H](N)c3ccccc3)C(=O)N2[C@H]1C(=O)O [AMPICILLIN]  Salmonella enteritidis                1
2  CN(C)[C@@H]1C(O)=C(C(N)=O)C(=O)[C@@]2(O)C(O)=C3C(=O)c4c(O)cccc4[C@@](C)(O)[C@H]3C[C@@H]12 [TETRACYCLINE]  Salmonella enteritidis                1

# evaluate next
**Q:** GET /values?readout=MIC&system=Salmonella enteritidis&item= O=C(N[C@H](CO)[C@H](O)c1ccc([N+](=O)[O-])cc1)C(Cl)Cl [CHLORAMPHENICOL]
**A:** 2

---

Tested on: Salmonella enteritidis
Method: Antimicrobial activity against marA::aph-deficient ciprofloxacin-resistant Salmonella enterica serovar enteritidis isolate 104-cip harboring gyrA D87Y,S83F mutant gene by Etest
Format: functional, Salmonella enterica subsp. enterica serovar Enteritidis
Kindly state MIC for each of the entries shown.
One number for each entry, in mg/L.

Example results:
> print(dat)
                                   compound           target.entity  observed.result
1  O=C(N[C@H](CO)[C@H](O)c1ccc([N+](=O)[O-])cc1)C(Cl)Cl [CHLORAMPHENICOL]  Salmonella enteritidis                3
2  CN(C)[C@@H]1C(O)=C(C(N)=O)C(=O)[C@@]2(O)C(O)=C3C(=O)c4c(O)cccc4[C@@](C)(O)[C@H]3C[C@@H]12 [TETRACYCLINE]  Salmonella enteritidis              1.5
3  CC1(C)S[C@@H]2[C@H](NC(=O)[C@H](N)c3ccccc3)C(=O)N2[C@H]1C(=O)O [AMPICILLIN]  Salmonella enteritidis              1.5

# evaluate next
**Q:** Which value of MIC has been reported for O=C(O)c1cn(C2CC2)c2cc(N3CCNCC3)c(F)cc2c1=O [CIPROFLOXACIN] in the records?
**A:** 4

---

Kindly state MIC for each of the entries shown.
Tested on: Salmonella enteritidis
Method: Antimicrobial activity against Salmonella enterica serovar enteritidis isolate 104-cip harboring gyrA D87Y,S83F mutant gene by Etest
Assay type: functional, Salmonella enterica subsp. enterica serovar Enteritidis
One number for each entry, in µg/mL.

> print(dat)
                                 smiles.str           target.entity  observation.type  observed.result
1  O=C(N[C@H](CO)[C@H](O)c1ccc([N+](=O)[O-])cc1)C(Cl)Cl  Salmonella enteritidis               MIC               96
2  CC1(C)S[C@@H]2[C@H](NC(=O)[C@H](N)c3ccccc3)C(=O)N2[C@H]1C(=O)O  Salmonella enteritidis               MIC               16

**Q:** Which value of MIC has been reported for CN(C)[C@@H]1C(O)=C(C(N)=O)C(=O)[C@@]2(O)C(O)=C3C(=O)c4c(O)cccc4[C@@](C)(O)[C@H]3C[C@@H]12 in the records?
**A:** 12
